- System: HepG2
- assay.explanation: GSK_TCMDC: Percent inhibition of human HepG2 cell line. Test compounds present at 10uM.
- Type: functional
Please note: Inhibition exactly at 10% is Criterion not met. Only values below 10% get Criterion met.

Before answering, review these 4 worked examples.
CC(C)c1ccc(S(=O)(=O)Nc2cccc(CCN3CCC(N4CCCCC4)CC3)c2)cc1
Criterion not met
O=C(Nc1ccccc1)Nc1cccc(-c2nn3c(OCC4CCCCN4)cccc3c2-c2ccncc2)c1 (centres undefined)
Criterion met
CCOc1cc(C=NNc2nc(C)cc(-n3nc(C)cc3C)n2)ccc1O
Criterion not met
CCOc1ccc(C(=O)Nc2cc(Br)c3c(c2)CNCC3)cc1Br.Cl
Criterion not met

Query: Does this compound meet the criterion Inhibition < 10%? CC(C)c1cn2c3c(cc(C(=O)N[C@@H](Cc4ccccc4)[C@H](O)CNC4CCOCC4)cc13)N(C)S(=O)(=O)CC2.O=CO
Result: Criterion met

Query: Does this compound meet the criterion Inhibition < 10%? CCCCOc1ccc(-c2nc3ccccc3[nH]2)cc1
Result: Criterion not met

Query: Does this compound meet the criterion Inhibition < 10%? CNCc1ccc(CN(C)c2nc(N)c3cc(OC)c(OC)cc3n2)cc1.O=C(O)C(F)(F)F
Result: Criterion not met

Query: Does this compound meet the criterion Inhibition < 10%? Cc1cc(=NN=Cc2ccccc2)c2cc(C(F)(F)F)ccc2[nH]1
Result: Criterion not met
